Species on record: Rattus norvegicus
Test: Open TG-GATES - Regimen: Daily Repeat
Format: toxicity, organism-based, Sprague-Dawley
Design: regimen Daily Repeat, gender Male, age 6 weeks
Conditions: in vivo, po, 0 mg/kg, […], tissue Blood, route gavage, dose level Control, time 28 day
assay.readout: Mono (%)
Answer with a number only, understood to be in %.

// known answers, use as guide
INSERT INTO results (smiles_representation, numeric_result) VALUES
  ('CCc1oc2ccccc2c1C(=O)c1cc(I)c(O)c(I)c1', 5.4),
  ('CC(C)(S)[C@@H](N)C(=O)O', 2.2),
  ('Nc1nc(N)c2nc(-c3ccccc3)c(N)nc2n1', 2.2);

input: // lookup Mono for CCC(C)(C)C(=O)O[C@H]1C[C@@H](C)C=C2C=C[C@H](C)[C@H](CC[C@@H]3C[C@@H](O)CC(=O)O3)[C@H]21
output: 4.8

input: // lookup Mono for CC(=O)Oc1cc(C(C)C)c(OCCN(C)C)cc1C
output: 1.8
